Taken from patent US20260132182A1.

This section presents binders with their documented Human AmyR3 potency [EC50 (pM)] values.
Target: T1, human amylin-3 (a) receptor (human, UniProt P30988 25-474; O60896 24-148)
T1 sequence (looked up) 1: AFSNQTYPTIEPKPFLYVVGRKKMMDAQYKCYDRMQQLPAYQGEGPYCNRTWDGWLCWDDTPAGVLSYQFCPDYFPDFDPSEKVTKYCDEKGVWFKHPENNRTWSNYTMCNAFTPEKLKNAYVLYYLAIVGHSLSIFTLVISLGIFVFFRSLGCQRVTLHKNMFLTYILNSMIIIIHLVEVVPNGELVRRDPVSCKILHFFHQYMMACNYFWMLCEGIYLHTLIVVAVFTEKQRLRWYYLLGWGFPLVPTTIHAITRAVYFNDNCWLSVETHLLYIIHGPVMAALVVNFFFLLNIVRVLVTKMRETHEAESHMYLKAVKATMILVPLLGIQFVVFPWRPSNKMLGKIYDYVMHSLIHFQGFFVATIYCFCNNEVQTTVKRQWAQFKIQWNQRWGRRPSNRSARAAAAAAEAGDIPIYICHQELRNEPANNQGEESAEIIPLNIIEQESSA
T1 sequence (looked up) 2: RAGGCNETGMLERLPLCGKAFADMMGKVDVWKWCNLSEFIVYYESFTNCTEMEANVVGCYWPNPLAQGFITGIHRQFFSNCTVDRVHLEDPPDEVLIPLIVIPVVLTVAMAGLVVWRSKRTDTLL
Assay: cell-based or functional assay
Starred links: 1 amine or outer side, 2 acyl side, 3 side chain; linkers in the order of their positions; H or OH if unused. Non-standard residues stand in square brackets, D forms with d. Groups on a side chain read outwards from the residue. *: point of attachment. Butyryl(4-SO2NHCO(CH2)16Tz) = O=C(CCCCCCCCCCCCCCCCc1nnn[nH]1)NS(=O)(=O)CCCC(=O)*; C20 diacid = O=C(O)CCCCCCCCCCCCCCCCCCC(=O)*; C18 diacid = O=C(O)CCCCCCCCCCCCCCCCC(=O)*; C16 diacid = O=C(O)CCCCCCCCCCCCCCC(=O)*; γGlu = O=C(O)[C@H](CCC(=O)[*:2])N[*:1]; AEEA = NCCOCCOCC(=O)O; Aib = CC(C)(N)C(=O)O
Report the value in pM with no unit label.

Please review the following examples before continuing.
binder="Compound 0273 (peptide) peptide: HWEGTFTSDK([AEEA-AEEA-γGlu-C18 diacid])SSYLEEQAAREFIEWLVRGRGEASELSTAALGRLSAELHELATLPRTETGSGSP-NH2" meas_value=18
binder="Compound 0296 (peptide) peptide: H[Aib]EGTFTSDVSSYLEEQAARK([AEEA-AEEA-γGlu-C16 diacid])FIAWLVRGRGGGGGASELSTAALGRLSK([AEEA-AEEA-γGlu-C16 diacid])ELHELATLPRTETGSGSP-NH2" meas_value=29.9
binder="Compound 0661 (peptide) peptide: H[Aib]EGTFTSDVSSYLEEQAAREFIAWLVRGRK([AEEA-AEEA-AEEA-γGlu-C18 diacid])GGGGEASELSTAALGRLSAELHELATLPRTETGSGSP-NH2" meas_value=14.4
binder="Compound 0475 (peptide) peptide: HAEGTFTSDK([AEEA-AEEA-γGlu-C16 diacid])SSYLEEK([AEEA-AEEA-γGlu-C16 diacid])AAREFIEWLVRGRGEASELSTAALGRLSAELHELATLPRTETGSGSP-NH2" meas_value=66.8

If you can, please state the reported Human AmyR3 potency [EC50 (pM)] value of Compound 0125 (peptide) peptide: H[Aib]EGTFTSDVSSYLEEQAARK(Butyryl(4-SO2NHCO(CH2)16Tz))FIAWLVRGRGEASELSTAALGRLSAELHELATLPRTETGSGSP-NH2 .
12.2

And the next one, Compound 0474 (peptide) peptide: HAEGTFTSDVSSYLEEK([AEEA-AEEA-γGlu-C20 diacid])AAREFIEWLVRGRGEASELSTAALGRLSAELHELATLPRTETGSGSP-NH2 ?
21.8

Likewise for Compound 0482 (peptide) peptide: HAEGTFTSDVSK([AEEA-AEEA-γGlu-C16 diacid])YLEEQAVREFIAK([AEEA-AEEA-γGlu-C16 diacid])LVRGRGGGEASELSTAALGRLSAELHELATLPRTETGSGSP-NH2 ?
31.8

Now this one: Compound 0660 (peptide) peptide: H[Aib]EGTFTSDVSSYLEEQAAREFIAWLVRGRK([AEEA-γGlu-C18 diacid])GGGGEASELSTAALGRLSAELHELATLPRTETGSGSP-NH2
12.7
